Assign glycan array binding signal (z-score) to each entry below.
biological target: Neu5Gc(a2-3)Gal(b1-4)GlcNAc(b1-3)Gal(b1-4)GlcNAc(b1-2)Man(a1-3)[Neu5Gc(a2-3)Gal(b1-4)GlcNAc(b1-3)Gal(b1-4)GlcNAc(b1-2)Man(a1-6)]Man(b1-4)GlcNAc(b1-4)GlcNAc; test: glycan array binding signal (z-score within array); higher = stronger binding; conditions: glycan notation: IUPAC condensed, linker removed
About 410 targets per protein were measured; listed, in parts, are those with the strongest signals and a random draw of the rest.
Answer using only a numeral; do not append any unit.

For the binder AFL5 (Aspergillus fumigatus), Q4WB00 (protein) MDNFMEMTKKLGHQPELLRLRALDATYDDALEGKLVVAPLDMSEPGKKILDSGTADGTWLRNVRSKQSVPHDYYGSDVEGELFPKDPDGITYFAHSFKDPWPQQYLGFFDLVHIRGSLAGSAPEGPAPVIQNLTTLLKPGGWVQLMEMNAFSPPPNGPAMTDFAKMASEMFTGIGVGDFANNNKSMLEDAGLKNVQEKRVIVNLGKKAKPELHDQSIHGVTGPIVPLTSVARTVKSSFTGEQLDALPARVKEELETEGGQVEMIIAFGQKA , what glycan array binding signal (z-score) is on record?
0.635

Data request, read-out glycan array binding signal (z-score), for SJCP1531 (Schistosoma japonicum) (protein) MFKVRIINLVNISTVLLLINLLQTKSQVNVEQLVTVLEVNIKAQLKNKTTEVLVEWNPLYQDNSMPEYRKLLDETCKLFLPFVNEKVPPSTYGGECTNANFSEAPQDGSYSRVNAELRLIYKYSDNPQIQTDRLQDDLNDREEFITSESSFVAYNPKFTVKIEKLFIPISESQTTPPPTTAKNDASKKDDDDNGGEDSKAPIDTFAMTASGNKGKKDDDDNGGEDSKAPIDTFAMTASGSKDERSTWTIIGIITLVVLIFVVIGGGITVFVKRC
0.86
